Target: T1, human IL-1α (human, UniProt P01583 113-271)
T1 construct: also called IL-1alpha; hIL-1α
T1 sequence (looked up): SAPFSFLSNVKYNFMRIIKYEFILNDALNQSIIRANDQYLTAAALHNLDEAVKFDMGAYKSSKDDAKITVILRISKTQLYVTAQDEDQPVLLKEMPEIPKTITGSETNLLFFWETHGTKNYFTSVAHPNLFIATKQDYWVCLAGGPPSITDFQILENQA
Test: Table 62 IC50; RBA presumed
property-measured: IC50 (nM)

binder	property-measured	result
ABT1-141-80 (other, VK dAb) VL: DIQMTQSPSSLSASVGDRVTITCRANQWIQKQLAWYQQKPGKAPKLLIYSSSHLQSGVPSRFSGSGYGTDFTLTISSLQPEDFATYYCQQHLRVPMTFGQGTKVEIKR	IC50	3
ABT1-141-54 (other, VK dAb) VL: DIQMTQSPSSLSASVGDRVTITCRASQWIQKQLAWYQQKPGKAPKLLIYSSSHLQSGVPSRFSGSGSGTDFTLTISSLQPEDFATYYCQQHLRVPMTFGQGTKVEIKR	IC50	3
